// values below are reported solubility kinetic
details: buffer; pH 7.4; 200.0 µM

{"compound": "CCn1c(=O)c([N+](=O)[O-])c(NCc2ccco2)c2ccccc21", "solubility kinetic": "0.6 µg/mL"}
{"compound": "N#Cc1cccc(Cn2cc(C(F)(F)F)ccc2=O)c1", "solubility kinetic": "41.7 µg/mL"}
{"compound": "Cc1ccc(C(=O)NCCCNC(=O)c2ccccc2C)cn1", "solubility kinetic": "> 46.7 µg/mL"}
{"compound": "COc1ccc(C(=O)CCN2CCCC(C)C2)cc1.Cl (stereo unspecified)", "solubility kinetic": "> 44.7 µg/mL"}
{"compound": "O=C(CN1CCCc2ccccc21)Nc1ccccc1[N+](=O)[O-]", "solubility kinetic": "0.5 µg/mL"}

# solubility kinetic lookup, item OC(CN1CCN(Cc2ccccc2)CC1)c1ccccc1 (stereo unspecified)
> 44.5 µg/mL

Fill blank: measured solubility kinetic of the compound COC(=O)c1c(NC(=O)C2=COCCO2)sc(C)c1C is ____.
0.7 µg/mL

Would you kindly share the measured solubility kinetic for COc1ccc(NC(=O)c2cc(-c3ccccc3)on2)cc1 ?
< 0.3 µg/mL

Would you kindly share the measured solubility kinetic for CCOc1ccc(C(=O)NC(C(=O)N2CCC2)C(C)C)cc1 (stereo unspecified) ?
> 45.7 µg/mL

Any idea what solubility kinetic was measured for COc1ccc(CNC2CC(C)N(C)CC2C)cc1OC.Cl (stereo unspecified) ?
50.9 µg/mL

Quick one: solubility kinetic of Cc1cc(-c2ccccc2)nc2c(Br)c(=O)[nH]n12 ?
> 45.6 µg/mL

Would you kindly share the measured solubility kinetic for O=C(COc1ncnc2sccc12)NC1CCCCC1 ?
> 43.7 µg/mL

Requested field: solubility kinetic. Item: Cc1ccc(C(=O)O)cc1N1CCCC1=O
> 32.9 µg/mL

Param item = CC1CC(O)C(C)CN1 (stereo unspecified) ; retrieve measured solubility kinetic.
> 19.4 µg/mL

---

details: buffer; pH 7.4; 200.0 µM
measurement_kind: solubility kinetic (µg/mL)
Use µg/mL as the unit, but write only the number.

Solved entries (count: 2):
{"molecule": "Cc1ccc(-c2csc(N=C(N)N)n2)cc1", "reading_unit": "µg/mL", "measured": 15.7}
{"molecule": "O=C(NCCN1CCOCC1)c1cc(-c2ccc(F)cc2)nc2ccccc12", "reading_unit": "µg/mL", "measured": 23.8}

# get_value(readout='solubility kinetic', item= CCCCCCC1CC(=O)NC(=S)N1 (stereo unspecified) )
28.4

Bench note: what solubility kinetic did CC(=O)c1csc(COc2ccc(Cl)cc2)n1 show?
3

---

Measured solubility kinetic accompanies every entry in the list below.
conditions: buffer; pH 7.4; 200.0 µM
Quick note: give the figure in µg/mL, leave out the unit.

Worked cases, answers included:
{"compound": "Cc1ccc(CSCC(=O)Nc2ccccc2F)cc1", "measurement_kind": "solubility kinetic", "measured": 27.6}
{"compound": "Clc1cc2nc(-c3cccnc3Cl)[nH]c2cc1Cl", "measurement_kind": "solubility kinetic", "measured": 0.8}
{"compound": "COc1ccc(CNc2ncc(-c3ccccc3)n2C)cc1", "measurement_kind": "solubility kinetic", "measured": 28.6}
{"compound": "Cc1ccc(Cn2c(C)nc3ccc([N+](=O)[O-])cc3c2=O)cc1", "measurement_kind": "solubility kinetic", "measured": 1.5}
{"compound": "CCOc1cc(/C=C/c2nc3ccccc3c(=O)[nH]2)ccc1O", "measurement_kind": "solubility kinetic", "measured": 32.4}

Proceed to the following item.
Report solubility kinetic for COc1ccccc1CNC(=O)C(CCSC)NC(=O)c1cccc(S(=O)(=O)N2CCOCC2)c1 (stereo unspecified) please.
3.4

---

settings: buffer; pH 7.4; 200.0 µM
Reported solubility kinetic values for a set of molecules
All answers are understood in µg/mL, so give the number only.

Example entries begin here.
{"molecule": "O=C(Cc1ccccc1F)NC1CCCc2ccccc21 (centres undefined)", "measurement_kind": "solubility kinetic", "measured": 16.7}
{"molecule": "CN(C)CCCNC(=O)c1cc(Br)ccc1O", "measurement_kind": "solubility kinetic", "measured": 45.2}
{"molecule": "O=C1CSC(c2ccccn2)N1c1ccccc1F (centres undefined)", "measurement_kind": "solubility kinetic", "measured": 40.6}

# get_value(readout='solubility kinetic', item= CC(=O)Nc1cccc(OCCCNC(=O)c2cccc3ccccc23)c1 )
46.8

Report solubility kinetic for COc1ccc2cc(C(=O)N3CCN(c4ccccc4F)CC3)[nH]c2c1 please.
1.9

Which solubility kinetic is reported for this molecule? CCc1ccc(NC(=O)NCc2ccc3c(c2)OCO3)cc1
0.6

Please give the measured solubility kinetic for this molecule: O=c1[nH]c(O)c(C=Nc2ccc(F)c(Cl)c2)c(=O)[nH]1
14

Any idea what its solubility kinetic is? The molecule is COc1cccc(N2CCC(N3CCN(C)C(CCO)C3)CC2)c1 (centres undefined)
48.4

Entry Cc1ccc(NS(=O)(=O)c2cccc3cccnc23)c(Cl)c1 has what solubility kinetic?
1.1

Any idea what solubility kinetic was measured for Cc1ccc(/C(O)=C2\C(=O)C(=O)N(C)C2c2cccc([N+](=O)[O-])c2)cc1 (centres undefined) ?
51.5

Please give the measured solubility kinetic for this molecule: CCN(CC)CCCNCC(=O)Nc1ccc2c(c1)CCC2
24.3

Given the molecule FC(F)(F)c1cc(NC2CCCCC2)ccn1 , what is its reported solubility kinetic?
28

State the recorded solubility kinetic for this entry: COc1ccccc1CNC(=O)CN1C(=O)NC2(CCOc3ccccc32)C1=O (centres undefined)
7.9

Entry under review: Cc1ccc(S(=O)(=O)Nc2nc(C)c(C)s2)cc1 . Reported solubility kinetic?
13.5

Endpoint output: solubility kinetic of CN(c1ccccc1)c1nc(N)c([N+](=O)[O-])c(N2CCCC2)n1 . Value?
20.9

// solubility kinetic lookup, key: CC(NC(=O)c1ccc(F)cc1Cl)C1CC2CCC1C2 (centres undefined)
16.6

Which solubility kinetic value is on record for COc1ccc(CC(=O)Nc2ccc(N(C)C)c3ccccc23)cc1 ?
7.6

Could you share which solubility kinetic value was measured for CCC1Oc2ccc(C)cc2N(CC(=O)NCC2CCCO2)C1=O (centres undefined) ?
43.6

Name the reported solubility kinetic value associated with the molecule Cc1ccc(C(=O)CCc2ccc(N)cc2)cc1
34.9

Requested field: solubility kinetic. Item: C[n+]1cc(-c2ccccc2)oc1-c1ccccc1
24.4

I'd like to know its solubility kinetic. The molecule in question is O=C(c1ccccc1F)n1c2c(c3ccccc31)CCCC2
0.8

// query solubility kinetic value for entry CC1CC1C(=O)OCC(=O)NC(=O)c1ccc(C(C)(C)C)cc1 (centres undefined)
7.5

---

settings: buffer; pH 7.4; 200.0 µM
Entries annotated with measured solubility kinetic
State the answer as a number, implicitly in µg/mL.

Answered cases to consult:
{"structure": "CN(Cc1ccccc1)S(=O)(=O)c1ccc(N2CCOCC2)nc1", "measured": 2.5}
{"structure": "Cn1c(=O)c2c(nc(N3CCOCC3)n2CCc2ccccc2)n(C)c1=O", "measured": 53.9}
{"structure": "Cc1cc(C=O)c(C)n1-c1ccc2c(c1)OCO2", "measured": 24.6}
{"structure": "CS(=O)(=O)N1CCC(C(=O)Nc2ccc(Cl)cc2)CC1", "measured": 13.4}
{"structure": "CCOC(=O)c1ccc(S(=O)(=O)Nc2cc(S(=O)(=O)Nc3ccc(OC)cc3)ccc2O)cc1", "measured": 72.8}

Here is another compound to look at.
Name the recorded solubility kinetic for NS(=O)(=O)c1ccc(NC(=S)NC(=O)c2cccs2)cc1 .
6.2

---

Listed below: log10 solubility kinetic values for each entry.
conditions: buffer; pH 7.4; 200.0 µM
Heads up: the numbers are on a log10 scale; they represent solubility kinetic in µg/mL.

{"compound": "O=C(NCC(c1ccco1)N1CCc2ccccc21)c1cccc(F)c1 (configuration not stated)", "log10 solubility kinetic": 1.21}
{"compound": "Cc1ccc(NC(=O)C2CCCN2C(=O)OCc2ccccc2)cc1C (configuration not stated)", "log10 solubility kinetic": 1.06}
{"compound": "O=C(COc1ccccc1)Nc1ccccc1F", "log10 solubility kinetic": 1.51}
{"compound": "Cc1nccc(-c2cccc(NC(=O)c3ccccc3Cl)c2)n1", "log10 solubility kinetic": 1.54}
{"compound": "CN1C2CCC1CC(NC(=O)c1cc(Cl)cc3[nH]cnc13)C2 (configuration not stated)", "log10 solubility kinetic": 1.61}

What log10 solubility kinetic value was documented for this compound, CC(C)(C)c1ccc(Oc2ccc(NC(=O)c3cccs3)cn2)cc1 ?
0.11

// returns reported log10 solubility kinetic for input COc1ccc(O)c(/C=N/c2nc3ccccc3n2C)c1
1.18

So what's the measured log10 solubility kinetic for this one? COc1ccc(Nc2nc(-c3ccncc3)nc3ccccc23)cc1
-0.22

Which log10 solubility kinetic reading was recorded for the compound O=C(Nc1nc2ccccc2[nH]1)c1ccc(OC(F)F)cc1 ?
0.38

Using the record for Cc1nc(-c2noc(-c3ccccc3Cl)n2)c(C(F)(F)F)o1 , report its log10 solubility kinetic.
-0.22

All figures here come from PubChem BioAssay AID1996.
